- assay protocol: logP by HPLC on reversed-phase column (EEC Directive 79/831 Annex V.A8)
- experimental context: HPLC on reversed-phase column (C 18), EEC Directive 79/831 Annex V.A8
parameter: logP
Respond with the number and no other words.

Some entries whose results are on file:
Cn1nc(C(F)F)c(C(=O)Nc2ccccc2-c2ccc([Si](C)(C)C)cc2)c1F    4.98
Cn1nc(C(F)F)c(C(=O)Nc2ccccc2SCC(F)(F)F)c1F    3.29

Next up:
Query: Respond only with logP recorded for `CC(C)c1ccc(-c2ccccc2NC(=O)c2c(C(F)F)nn(C)c2Cl)cc1`
Reply: 4.86

* * *

Some compounds, each annotated with its measured Efficacy.
- System: Fusarium nivale (var. majus)
- assay protocol: Fusarium nivale (var. majus)-test (wheat)/preventive
- experimental context: 500 ppm, preventive, evaluated 5 days after inoculation
API: value field is a number in %; no unit string.

Cn1nc(C(F)F)c(C(=O)Nc2ccccc2CC[Si](C)(C)C)c1Cl    86
Cn1nc(C(F)F)c(C(=O)Nc2ccccc2CCC(C)(C)C)c1Cl    100
CC(C)C1C2CCC1c1c(NC(=O)c3cn(C)nc3C(F)F)cccc12 (stereo not drawn) [15.202 (syn/anti 3/7) from WO-2004/035589] [reference compound]    83

Query: Name the recorded Efficacy of the item Cc1nn(C)c(F)c1C(=O)Nc1ccccc1C(C)CC(C)C (stereo not drawn) [I-21 from WO-2003/010149, reference compound] in your answer.
Reply: 40

Query: Identify measured Efficacy associated with `CC(C)Oc1cccc(NC(=O)c2c(C(F)F)nn(C)c2F)c1`
Reply: 86

Query: Dear colleague, please send me the reported Efficacy for `Cn1nc(C(F)F)c(C(=O)Nc2ccccc2-c2ccc(Cl)cc2)c1F` when you can.
Reply: 100

* * *

- assay protocol: logP by HPLC on reversed-phase column (EEC Directive 79/831 Annex V.A8)
- experimental context: HPLC on reversed-phase column (C 18), EEC Directive 79/831 Annex V.A8
Label label 1 when logP is strictly below 4; at or above that, label label 0.

Cn1nc(C(F)F)c(C(=O)Nc2ccccc2OCc2cc(Cl)ccc2Cl)c1F    label 0
CC(C)Oc1cccc(NC(=O)c2c(C(F)F)nn(C)c2F)c1    label 1
Cn1nc(C(F)F)c(C(=O)Nc2c(F)cccc2-c2ccc(Cl)c(Cl)c2)c1F    label 1
Cn1nc(C(F)F)c(C(=O)Nc2cccc(-c3ccc(F)cc3)c2)c1Cl    label 1

Query: I'd appreciate it if you could check whether Cn1nc(C(F)F)c(C(=O)Nc2ccccc2OC(F)(F)C(F)C(F)(F)F)c1Cl (stereo not drawn) has logP smaller than 4.
Reply: label 1

Query: Consider the molecule `CC(C)=CCc1ccccc1NC(=O)c1c(C(F)F)nn(C)c1F` . Is its logP strictly less than 4?
Reply: label 1

Query: Please state whether logP is below 4 for `Cc1ccccc1-c1cccc(NC(=O)c2c(C(F)F)nn(C)c2F)c1`
Reply: label 1

Query: In plain terms, does `CC(C)Oc1cc(NC(=O)c2c(C(F)F)nn(C)c2F)c(Cl)cc1Cl` come in under 4 for logP?
Reply: label 0

* * *

- assay protocol: logP by HPLC on reversed-phase column (EEC Directive 79/831 Annex V.A8)
- experimental context: HPLC on reversed-phase column (C 18), EEC Directive 79/831 Annex V.A8
Below, each entry is listed with its recorded logP.
I'd appreciate a reply containing only the number, no unit.

Cn1nc(C(F)F)c(C(=O)Nc2ccccc2SC(F)(F)F)c1F    3.37
Cn1nc(C(F)F)c(C(=O)Nc2ccccc2-c2ccc(Cl)c(F)c2)c1F    3.45
Cn1nc(C(F)F)c(C(=O)Nc2ccccc2C2CC3CCC2C3)c1F (stereo not drawn)    3.78
CC(C)O/N=C/c1ccc(-c2ccccc2NC(=O)c2c(C(F)F)nn(C)c2Cl)cc1    4.63
Cn1nc(C(F)F)c(C(=O)Nc2ccccc2OCc2ccccc2)c1Cl    3.99
CC(C)=CCc1ccccc1NC(=O)c1c(C(F)F)nn(C)c1Cl    3.35
CC(C)C1C2CCC1c1c(NC(=O)c3c(C(F)F)nn(C)c3Cl)cccc12 (stereo not drawn)    4.55
Cn1nc(C(F)F)c(C(=O)Nc2ccccc2-c2ccc(-c3ccccc3)cc2)c1Cl    4.61

We next turn to a different compound, shown below.
Query: Give logP for `Cn1nc(C(F)F)c(C(=O)Nc2ccccc2-c2ccc(Br)cc2Cl)c1F`
Reply: 3.85
